tested on: SCAP; experiment: qPCR SCAP transcript level in HepG2 cells; type: cell-based, human; parameters: key: A: Increase <2-fold; B: Increase >2-fold; X: Decrease <2-fold; Y: Decrease >2-fold; No significant change
reported.endpoint: qPCR SCAP

molecule	reported.result
O=C(C[C@H]1CC[C@H]2[C@@H](COC[C@@H](O)CN2Cc2ccc(Oc3ccccc3)cc2)O1)N1CCc2ccccc2C1	N
O=C(C[C@@H]1CC[C@H]2[C@@H](COC[C@H](O)CN2Cc2ccc(Oc3ccccc3)cc2)O1)N1CCc2ccccc2C1	N
CC(C)c1c(C(=O)Nc2ccccc2)c(-c2ccccc2)c(-c2ccc(F)cc2)n1CC[C@@H](O)C[C@@H](O)CC(=O)O [Atorvastatin, atorvastatin, reference compound]	N

###

test system: PCSK9; experiment: ELISA of secreted PCSK9 protein in HepG2 cells; type: cell-based, human; settings: HepG2 cells; note: test concentration or dose not given here
reported.endpoint: ELISA PCSK9

compound	ELISA PCSK9
O=C(C[C@H]1CC[C@@H]2[C@H](COC[C@H](O)CN2Cc2ccc(Oc3ccccc3)cc2)O1)N1CCc2ccccc2C1	Y (Decrease >2-fold)
CN1C(=O)c2cc(NC(=O)Cc3cccs3)ccc2OC[C@@H]2O[C@H](CC(=O)NCc3ccc(-c4ccccc4)cc3)CC[C@@H]21	X (Decrease <2-fold)
O=C(C[C@@H]1CC[C@@H]2[C@H](COC[C@H](O)CN2CCC(F)(F)F)O1)NCc1ccc(Oc2ccccc2)cc1 [Compound 10a]	X (Decrease <2-fold)
O=C(C[C@@H]1CC[C@@H]2[C@H](COC[C@@H](O)CN2CCC(F)(F)F)O1)NCc1ccc(Oc2ccccc2)cc1	X (Decrease <2-fold)

// switching to the query compound
Looking up `O=C(C[C@H]1CC[C@H]2[C@@H](COC[C@@H](O)CN2Cc2ccc(Oc3ccccc3)cc2)O1)N1CCc2ccccc2C1` , I found its ELISA PCSK9 recorded as Y (Decrease >2-fold)

###

test system: SCAP; assay: qPCR SCAP transcript level in HepG2 cells; assay type: cell-based, human; set-up: key: A: Increase <2-fold; B: Increase >2-fold; X: Decrease <2-fold; Y: Decrease >2-fold; No significant change
reported.endpoint: qPCR SCAP

>>> df
                                   compound  assayed_system  reported_endpoint       reported_result
0  O=C(C[C@H]1C[C@H]2c3cc(NS(=O)(=O)c4ccc(F)cc4)ccc3O[C@H]2[C@H](CO)O1)NCc1ccc(Oc2ccccc2)cc1 [Compound 13a]            SCAP          qPCR SCAP                     N
1  CN1C(=O)c2cc(NC(=O)Cc3cccs3)ccc2OC[C@@H]2O[C@H](CC(=O)NCc3ccc(-c4ccccc4)cc3)CC[C@@H]21            SCAP          qPCR SCAP  X (Decrease <2-fold)
2  CN(C)c1ccc2c(c1)[C@@H]1C[C@@H](CC(=O)NCc3ccc(Oc4ccccc4)cc3)O[C@@H](CO)[C@@H]1O2 [Compound 12a]            SCAP          qPCR SCAP  X (Decrease <2-fold)
